- Measured Target: Cytochrome P450 3A4 (Homo sapiens, UniProt P08684)
- Sequence (P08684 whole entry): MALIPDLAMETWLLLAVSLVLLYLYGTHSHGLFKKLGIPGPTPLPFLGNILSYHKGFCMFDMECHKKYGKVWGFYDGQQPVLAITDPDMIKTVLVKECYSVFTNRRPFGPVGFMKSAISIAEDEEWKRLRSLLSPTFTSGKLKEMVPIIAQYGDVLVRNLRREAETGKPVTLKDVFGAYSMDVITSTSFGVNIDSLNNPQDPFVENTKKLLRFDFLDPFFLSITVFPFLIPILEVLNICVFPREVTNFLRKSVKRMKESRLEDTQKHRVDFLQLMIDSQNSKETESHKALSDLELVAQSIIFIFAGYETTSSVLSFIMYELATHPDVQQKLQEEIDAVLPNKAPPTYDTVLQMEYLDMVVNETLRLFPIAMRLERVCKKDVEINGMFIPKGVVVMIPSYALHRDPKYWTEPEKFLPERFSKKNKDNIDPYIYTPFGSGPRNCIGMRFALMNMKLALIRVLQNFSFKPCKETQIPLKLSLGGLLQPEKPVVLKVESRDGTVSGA
Measurement Type: IC50

Return reported IC50; argument: C[C@@H]1COCCN1c1nc(-c2nncc3[nH]ccc23)cc2c1ncn2C > 24 µM

###

- Method Summary: Solubility of the compound in PBS buffer at pH 7 by shake flask equilibrium solubility assay
Measurement Type: solubility thermodynamic

Example cases with answers are listed next.
>>> df
                               smiles_entry  assay_value
0  C[C@@H]1COCCN1c1nc(-c2c(F)ncc3[nH]ccc23)cc2c1ncn2C    > 2300 µM
1  C[C@@H]1COCCN1c1nc(-c2nncc3[nH]ccc23)cc2c1ncn2C    > 2400 µM

The record that follows has no solubility thermodynamic shown yet.
Return reported solubility thermodynamic; argument: C[C@@H]1COCCN1c1nc(-c2cncc3[nH]ccc23)cc2c1ncn2[C@@H](C)S(C)(=O)=O > 770 µM
